Some molecules, each annotated with its measured DC50.
target: BRAF V600E (Homo sapiens, UniProt P15056, V600E); construct: expressed in transfected cells; experiment: Cellular assay of target protein degradation, T-Rex 293 cells stably transfected with HA-BRAF_V600E (HA immunofluorescence, high content imaging); type: cell-based; conditions: half maximal degradation, T-Rex 293 HA-BRAF V600E; read-out: BRaf V600E DC50
Sequence (P15056 whole entry V600E): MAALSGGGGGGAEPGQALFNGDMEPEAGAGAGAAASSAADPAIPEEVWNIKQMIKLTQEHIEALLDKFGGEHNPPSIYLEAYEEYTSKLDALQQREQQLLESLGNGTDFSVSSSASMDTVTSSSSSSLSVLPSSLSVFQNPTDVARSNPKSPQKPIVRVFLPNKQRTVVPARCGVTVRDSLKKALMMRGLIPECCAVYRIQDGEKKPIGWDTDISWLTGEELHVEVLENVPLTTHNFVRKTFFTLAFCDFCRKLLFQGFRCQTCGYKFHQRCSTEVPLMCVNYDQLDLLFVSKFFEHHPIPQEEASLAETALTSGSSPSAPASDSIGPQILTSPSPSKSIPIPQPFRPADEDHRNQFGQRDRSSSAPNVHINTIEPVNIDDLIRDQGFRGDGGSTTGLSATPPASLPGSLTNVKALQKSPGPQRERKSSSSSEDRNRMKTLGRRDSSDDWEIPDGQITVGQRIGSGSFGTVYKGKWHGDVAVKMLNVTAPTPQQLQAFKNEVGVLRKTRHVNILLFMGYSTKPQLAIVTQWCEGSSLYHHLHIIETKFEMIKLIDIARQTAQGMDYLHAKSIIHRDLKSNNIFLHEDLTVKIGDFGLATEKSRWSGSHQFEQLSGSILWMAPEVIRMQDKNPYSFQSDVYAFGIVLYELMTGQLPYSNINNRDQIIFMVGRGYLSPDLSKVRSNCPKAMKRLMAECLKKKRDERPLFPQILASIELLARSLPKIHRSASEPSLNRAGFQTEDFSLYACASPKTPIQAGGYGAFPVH

molecule	DC50
COc1c(NS(=O)(=O)N2CC[C@@H](F)C2)ccc(F)c1C(=O)c1c[nH]c2ncc(-c3ccc(N4CCC(CN5CCC(c6ccc7c(c6)CN([C@H]6CCC(=O)NC6=O)C7=O)CC5)CC4)cc3)cc12 [Compound 207]	5 to 50 nM
O=C1CC[C@@H](N2Cc3cc(C4CN(CC5CC6(C5)CN(c5ccc(-c7cnc8[nH]cc(C(=O)c9c(F)ccc(NS(=O)(=O)N%10CC[C@@H](F)C%10)c9F)c8c7)cc5)C6)C4)ccc3C2=O)C(=O)N1 [Compound 100]	5 to 50 nM
O=C1CCC(N2Cc3cc(N4CC(CN5CCC(Cc6ncc(-c7cnc8[nH]cc(C(=O)c9c(F)ccc(NS(=O)(=O)N%10CC[C@@H](F)C%10)c9F)c8c7)cn6)CC5)C4)ccc3C2=O)C(=O)N1 (some centres unmarked) [Compound 194]	50 to 500 nM
C[C@H]1CC[C@H](C)N1S(=O)(=O)Nc1ccc(F)c(C(=O)c2c[nH]c3ncc(-c4ccc(N5CCC(CN6CCC(c7ccc8c(c7)CN(C7CCC(=O)NC7=O)C8=O)CC6)CC5)cc4)cc23)c1F (some centres unmarked) [Compound 263]	50 to 500 nM

Moving on to another molecule below.
Sample O=C1CCC(N2Cc3cc(N4CCC(CN5CC6(CCN(c7ccc(-c8cnc9[nH]cc(C(=O)c%10c(F)ccc(NS(=O)(=O)N%11CC[C@@H](F)C%11)c%10F)c9c8)cn7)C6)C5)CC4)ccc3C2=O)C(=O)N1 (some centres unmarked) [Compound 92] ; DC50 observed: < 5 nM

---

target: BRAF G466V (Homo sapiens, UniProt P15056, G466V); construct: expressed in transfected cells; assay: Cellular assay of target protein degradation, T-Rex 293 cells stably transfected with HA-BRAF G466V (HA immunofluorescence, high content imaging); format: cell-based; details: half maximal degradation, T-Rex 293 HA-BRAF G466V; read-out: BRaf G466V DC50
Sequence (P15056 whole entry G466V): as the sequence (P15056 whole entry V600E) above, with G466V, E600V counted along it
Some compounds, each annotated with its measured DC50.

compound	DC50
O=C1CCC(N2Cc3cc(N4CCC(N5CCCC56CN(c5ccc(-c7cnc8[nH]cc(C(=O)c9c(F)ccc(NS(=O)(=O)N%10CC[C@@H](F)C%10)c9F)c8c7)cc5)C6)CC4)ccc3C2=O)C(=O)N1 (some centres unmarked)	10 to 30 nM
O=C1CC[C@H](NC(=O)c2cc(C3CCN(CC4CCN(c5ccc(-c6cnc7[nH]cc(C(=O)c8c(F)ccc(NS(=O)(=O)N9CC[C@@H](F)C9)c8F)c7c6)cc5)CC4)CC3)ccc2F)C(=O)N1	1 to 10 nM
COc1cc(N2CCC(CN3CC4(C3)CN(c3ccc(-c5cnc6[nH]cc(C(=O)c7c(F)ccc(NS(=O)(=O)N8CC[C@@H](F)C8)c7F)c6c5)cc3)C4)CC2)cc2c1C(=O)N([C@@H]1CCC(=O)NC1=O)C2	1 to 10 nM

Sample O=C1CCC(N2Cc3cc(C4CCN(C[C@@H]5CCN(c6ccc(-c7cnc8[nH]cc(C(=O)c9c(F)ccc(NS(=O)(=O)N%10CC[C@@H](F)C%10)c9F)c8c7)cc6)C[C@@H]5F)CC4)ccc3C2=O)C(=O)N1 (some centres unmarked) ; DC50 observed: 1 to 10 nM

Sample O=C1CCC(N2Cc3cc(OCCCCN4CCN(c5ncc(-c6cnc7[nH]cc(C(=O)c8c(F)ccc(NS(=O)(=O)N9CC[C@@H](F)C9)c8F)c7c6)cn5)CC4)ccc3C2=O)C(=O)N1 (some centres unmarked) ; DC50 observed: 1 to 10 nM
